- Test system: green algae Chlamydomonas reinhardtii (CC-125)
- Measurement protocol: Algal fluorescence inhibition (Vj) measured with the commercial Handy-PEA fluorometer
- Format: cell-based
- Recorded conditions: Handy-PEA commercial system, 1×10^6 cell/ml algal culture, same experimental conditions, read-out: concentration of DCMU inhibiting 50% of the algae photochemistry (EC50), evaluated with Vj
Test readout: EC50 (nM)
Kindly answer with a numeric value in nM, unit omitted.

// EC50 value for CN(C)C(=O)Nc1ccc(Cl)c(Cl)c1 : 220
